Experiment: NCI Yeast Anticancer Drug Screen. Data for the mgt1 strain (AID 153)
Settings: S. cerevisiae mgt1 mutant growth inhibition; at 33.0 µM
Experimental: Growth inhibition of yeast strains with defined genetic alterations is measured as a screen for potential anti-cancer activity. Selected strains with alterations in DNA damage repair or cell cycle control were exposed to compounds and growth inhibition was measured relative to vehicle treated controls. The strain used in this assay is mgt1
This is part of a sample that, as a whole, favours compounds with a hit. Of some 79,000 tested, about 15% had one in any assay. Activity calls are given as the source filed them. Cut-off read from the data, not from the text of the source: active = growth inhibition above about 70%; inactive = the rest.
Please state which outcome applies, choosing from true (active), false (inactive)

Would you please look over these solved cases?
* O=C(c1c(F)c(F)c(F)c(F)c1F)c1c(F)c(F)c(F)c(F)c1F | true
* CC(C)c1ccc(C2NC(=S)NC3=C2c2ccccc2C3=O)cc1 (stereo unspecified) | false
* CCOc1ccccc1N1C(=O)CC(Sc2ccccc2N)C1=O (stereo unspecified) | false
* COC1=C(N=[N+]=[N-])C(=O)c2ncccc2C1=O | true
* CCOC(=O)c1[nH]c2cccc3c2c1CC(Br)C3=O (stereo unspecified) | false
* Cn1c(COc2ccc(/C=N/NC(=O)CCC(=O)N/N=C/c3ccc(OCc4c[n+]5ccccc5n4C)cc3)cc2)c[n+]2ccccc12 | false

## Task Assay outcome for c1ccc(N/N=C2\CC(c3ccccc3)Oc3ccccc32)cc1 (stereo unspecified) : what was it?
## Result false

## Task Assay outcome for `CCSc1c2ccccc2c(-c2nc(F)nc(F)n2)n1CCc1ccccc1` : what was it?
## Result true

## Task Assay outcome for `COc1ccc(/C=C2\CCc3ccccc3C2=O)cc1OC` : what was it?
## Result false

## Task Assay outcome for S=C1NC2=C(CSC/C2=C\c2ccc(Cl)cc2)C(c2ccc(Cl)cc2)N1 (stereo unspecified) : what was it?
## Result true

## Task Assay outcome for `O=C(CCC(=O)c1ccc(O)cc1)Oc1ccc(O)cc1` : what was it?
## Result false

---

assay: NCI Yeast Anticancer Drug Screen. Data for the mgt1 strain (AID 153); settings: S. cerevisiae mgt1 mutant growth inhibition; at 1.2 µM; active compounds read high
About 79,000 compounds went through this panel and 15% of them were active in at least one assay; those are over-represented in the sample as a whole. Active and inactive are the calls of the source. Rule as the data show it: active = growth inhibition above about 70%; inactive = the rest.
outcomeMeasure: growth inhibition

Recorded results for 6 molecules are shown here.
- O=C1C(C(O)(C(F)(F)F)C(F)(F)F)CCC1C(O)(C(F)(F)F)C(F)(F)F (stereo unspecified): 1% (inactive)
- Cc1ccccc1C1=C(CC(=O)O)c2ccccc2CC1C (stereo unspecified): 9% (inactive)
- c1ccc(C2=NNC3c4ccccc4-c4ccccc4N3C2)cc1 (stereo unspecified): -1% (inactive)
- CSc1ccc2c(c1)C(N1CCN(C)CC1)Cc1ccccc1S2 (stereo unspecified): -33% (inactive)
- CC1=NN(C(=O)CC(=O)N(C(=O)c2ccccc2)c2ccc(Cl)cc2)C(=O)C1N=Nc1ccc([N+](=O)[O-])cc1 (stereo unspecified): 0% (inactive)
- O=C1c2ccccc2-c2ccc(NC(=O)C3CCCCC3C(=O)O)cc21 (stereo unspecified): -2% (inactive)

Now examine the next entry.
## Task Looking for the measured growth inhibition of `Nc1ccc2cc(Br)c3ccccc3c2c1` , can you help?
## Result -1% (inactive)

---

Assay: NCI Yeast Anticancer Drug Screen. Data for the rad18 strain (AID 177)
Settings: S. cerevisiae rad18 mutant growth inhibition; at 33.0 µM; active compounds read high
Method: Growth inhibition of yeast strains with defined genetic alterations is measured as a screen for potential anti-cancer activity. Selected strains with alterations in DNA damage repair or cell cycle control were exposed to compounds and growth inhibition was measured relative to vehicle treated controls. The strain used in this assay is rad18
This is part of a sample that, as a whole, favours compounds with a hit. Of some 79,000 tested, about 15% had one in any assay. Activity calls are given as the source filed them. Cut-off read from the data, not from the text of the source: active = growth inhibition above about 70%; inactive = the rest. Starred links: 1 amine or outer side, 2 acyl side, 3 side chain; linkers in the order of their positions; H or OH if unused. Positions of bridges follow the written chain, without caps; N, C: chain ends. Non-standard residues stand in square brackets, D forms with d. Residues, ends and D or L forms follow the SMILES beside them. Chains are numbered I, II in the order given. Actinocin(9to1) = Cc1c2oc3c(C)ccc(C(=O)[*:1])c3nc-2c(C(=O)[*:2])c(N)c1=O; aThr = C[C@H](O)[C@H](N)C(=O)O; NMeV = CN[C@H](C(=O)O)C(C)C; Sar = CNCC(=O)O
outcomeMeasure: growth inhibition

## Task Looking for the measured growth inhibition of `Oc1ccc(Cc2nccc3cc(O)c(O)cc23)cc1O` , can you help?
## Result 5% (inactive)

## Task Looking for the measured growth inhibition of `Nc1cccc2cc(Cl)cnc12` , can you help?
## Result 82% (active)

## Task Looking for the measured growth inhibition of Cc1ccccc1C1=C(CC(=O)O)c2ccccc2CC1C (configuration not stated) , can you help?
## Result 96% (active)

## Task Looking for the measured growth inhibition of Cc1c2oc3c(C)ccc(C(=O)N[C@@H]4C(=O)N[C@H](C(C)C)C(=O)N5CCC[C@H]5C(=O)N(C)CC(=O)N(C)[C@@H](C(C)C)C(=O)O[C@H]4C)c3nc-2c(C(=O)N[C@@H]2C(=O)N[C@H](C(C)C)C(=O)N3CCC[C@H]3C(=O)N(C)CC(=O)N(C)[C@@H](C(C)C)C(=O)O[C@H]2C)c(N)c1=O (I: [aThr][dV]P[Sar][NMeV] / II: [aThr][dV]P[Sar][NMeV]; ester I:1-I:C, II:1-II:C; linker I:N-II:N via Actinocin(9to1)) , can you help?
## Result 96% (active)

## Task Looking for the measured growth inhibition of `N#C/C(=C1C=C/C(=N\O)C(Cl)=C\1)c1ccccc1` , can you help?
## Result 2% (inactive)

## Task Looking for the measured growth inhibition of `O=S(=O)(O)c1ccc2c(N=Nc3c(O)ccc4ccccc34)cccc2c1` , can you help?
## Result 87% (active)

## Task Looking for the measured growth inhibition of `O=[N+]([O-])c1cccc2nc3ccccc3c(NCCC[N+]3([O-])CCOCC3)c12` , can you help?
## Result 97% (active)

This collection of values is drawn from PubChem BioAssay (NCI).
